Reference source: the supplement of paper PMC8728848

For each of the binders below, state its glycan array binding signal (z-score).
Biological target: Neu5Ac(a2-8)Neu5Ac(a2-8)Neu5Ac(a2-3)[GalNAc(b1-4)]Gal(b1-4)Glc
Assay: glycan array binding signal (z-score within array); higher = stronger binding
Settings: glycan notation: IUPAC condensed, linker removed
This is one part of a sample in which the strongest signals are shown more often than they occur.

Consider the worked cases shown below.
1) Eosinophil-derived neurotoxin (EDN) (Homo sapiens), P10153 (protein) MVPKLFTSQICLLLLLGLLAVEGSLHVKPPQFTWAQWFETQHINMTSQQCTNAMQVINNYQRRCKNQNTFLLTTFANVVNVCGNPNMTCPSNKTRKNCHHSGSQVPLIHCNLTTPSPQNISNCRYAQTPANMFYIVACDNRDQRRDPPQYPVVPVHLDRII; -0.121
2) Epa3to2 (Candida glabrata) (protein) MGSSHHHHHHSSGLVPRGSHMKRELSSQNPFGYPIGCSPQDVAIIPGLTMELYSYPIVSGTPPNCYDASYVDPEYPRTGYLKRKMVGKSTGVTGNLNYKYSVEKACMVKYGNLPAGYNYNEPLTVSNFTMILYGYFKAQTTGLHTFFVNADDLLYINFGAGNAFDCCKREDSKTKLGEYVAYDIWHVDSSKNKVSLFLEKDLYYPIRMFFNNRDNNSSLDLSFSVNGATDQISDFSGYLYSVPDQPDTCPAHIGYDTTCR; 0.534
3) Pbx2CASH domain (Cryptococcus neoformans) (protein) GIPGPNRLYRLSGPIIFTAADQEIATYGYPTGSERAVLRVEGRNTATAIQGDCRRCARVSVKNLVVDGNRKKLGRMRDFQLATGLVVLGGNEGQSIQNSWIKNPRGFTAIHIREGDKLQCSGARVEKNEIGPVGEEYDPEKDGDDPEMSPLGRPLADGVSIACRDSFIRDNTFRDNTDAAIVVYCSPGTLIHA; 3.58
4) SJCP3842 (Schistosoma japonicum) (protein) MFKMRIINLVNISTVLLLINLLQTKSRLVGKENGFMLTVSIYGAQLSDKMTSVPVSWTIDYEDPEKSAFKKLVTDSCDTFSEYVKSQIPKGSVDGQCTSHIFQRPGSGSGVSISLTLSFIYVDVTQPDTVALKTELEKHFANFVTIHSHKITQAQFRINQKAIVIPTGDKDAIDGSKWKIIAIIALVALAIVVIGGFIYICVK; 0.881
5) RSVL (Crotalus atrox), P21963 (protein) NNCPLDWLPMNGLCYKIFNQLKTWEDAEMFCRKYKPGCHLASFHRYGESLEIAEYISDYHKGQENVWIGLRDKKKDFSWEWTDRSCTDYLTWDKNQPDHYQNKEFCVELVSLTGYRLWNDQVCESKDAFLCQCKF; -0.362

// next entry
Challenge: Reported glycan array binding signal (z-score), binder Pwp2 (Candida glabrata) (protein) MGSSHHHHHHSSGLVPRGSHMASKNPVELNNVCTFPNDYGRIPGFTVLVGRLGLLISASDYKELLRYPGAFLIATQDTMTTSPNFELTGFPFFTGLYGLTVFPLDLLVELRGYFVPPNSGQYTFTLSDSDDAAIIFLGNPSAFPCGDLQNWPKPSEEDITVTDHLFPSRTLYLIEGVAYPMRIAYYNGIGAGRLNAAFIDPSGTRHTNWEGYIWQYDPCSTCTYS : ____
Response given: 0.537
